Data provenance: paper PMC10979747

assay: Serum stability assay (LC/MS against internal standard); conditions: human, human serum diluted in TBS, pH 7.6
Numbered stars: 1 amine (or outer) side, 2 acyl side, 3 side chain; on linkers, the order of the positions; unused ones are H or OH. Bridge positions count the residues as written; N and C are the ends. Square brackets hold non-standard residues; d marks the D form. Peptide text beside a SMILES is read from it. X1 = C=C(N[*:2])c1nc(-c2nc(-c3nc(C(=O)OC)cs3)ccc2C(=O)[*:1])cs1; NMePhe(4-NO2) = CN[C@@H](Cc1ccc([N+](=O)[O-])cc1)C(=O)O; ValThz = CC(C)[C@H](N[*:1])c1nc(C(=O)[*:2])cs1; Tic(7-OH) = O=C(O)[C@@H]1Cc2ccc(O)cc2CN1; X2 = O=C(c1csc([C@H](CO)N[*:1])n1)[*:2]; X3 = C/C=C(\N[*:1])c1nc(C(=O)[*:2])cs1; Aad = N[C@@H](CCCC(=O)O)C(=O)O; Dhb = C/C=C(\N)C(=O)O; Dha = C=C(N)C(=O)O; Sar = CNCC(=O)O
half-life at 10 µM reference
Dear colleague, please return just the value in h, with no unit written.

C=C1NC(=O)CN(C)C(=O)[C@H](CC(N)=O)NC(=O)c2csc(n2)[C@H](CO)NC(=O)[C@H](Cc2c[nH]c3ccccc23)NC(=O)[C@H](Cc2c[nH]c3ccccc23)NC(=O)c2ccc(-c3nc(C(=O)OC)cs3)nc2-c2csc(n2)C(=C)NC(=O)[C@H](C)NC(=O)/C(=C/C)NC(=O)[C@@H]2Cc3ccc(O)cc3CN2C(=O)[C@H](Cc2ccc([N+](=O)[O-])cc2)N(C)C(=O)CN(C)C(=O)C(=C)NC1=O [wTP12] (WW[X2]N[Sar][Dha][Dha][Sar][NMePhe(4-NO2)][Tic(7-OH)][Dhb]A; linker N-C via X1) ... 56.3
C=C1NC(=O)C(=C)NC(=O)[C@H](CCCCN)NC(=O)[C@H](CC(C)C)NC(=O)[C@H]([C@@H](C)O)NC(=O)[C@H](CCCCN)NC(=O)[C@H](Cc2ccc(O)cc2)NC(=O)[C@H]([C@@H](C)CC)NC(=O)[C@H](Cc2ccccc2)NC(=O)CNC(=O)[C@H](Cc2c[nH]c3ccccc23)NC(=O)c2ccc(-c3nc(C(=O)OC)cs3)nc2-c2csc(n2)C(=C)NC(=O)CNC1=O [TP1, reference compound] (WGFIYKTLK[Dha][Dha]G; linker N-C via X1) ... 2.3
C=C1NC(=O)[C@H](CCCC(N)=O)NC(=O)[C@@H]2Cc3ccc(O)cc3CN2C(=O)[C@H](CC(N)=O)NC(=O)/C(=C/C)NC(=O)[C@H](Cc2ccc([N+](=O)[O-])cc2)N(C)C(=O)CN(C)C(=O)[C@H](C)NC(=O)[C@H](Cc2c[nH]c3ccccc23)NC(=O)c2ccc(-c3nc(C(=O)OC)cs3)nc2-c2csc(n2)C(=C)NC(=O)c2csc(n2)[C@H](C(C)C)NC(=O)C(=C)NC(=O)/C(=C/C)NC1=O [wTP8] (WA[Sar][NMePhe(4-NO2)][Dhb]N[Tic(7-OH)][Aad](NH2)[Dha][Dhb][Dha][ValThz]; linker N-C via X1) ... 34.9

For C=C1NC(=O)[C@@H]2Cc3ccc(O)cc3CN2C(=O)[C@H](CCCNC(=N)N)NC(=O)[C@H](CC(C)C)NC(=O)[C@H](Cc2ccc([N+](=O)[O-])cc2)N(C)C(=O)[C@H](CC(N)=O)NC(=O)[C@H](CC(C)C)NC(=O)[C@H](CCCNC(=N)N)NC(=O)[C@H](CCCC(N)=O)NC(=O)[C@H](C)NC(=O)[C@H](Cc2c[nH]c3ccccc23)NC(=O)c2ccc(-c3nc(C(=O)OC)cs3)nc2-c2csc(n2)C(=C)NC(=O)CNC1=O [hTP13] (WA[Aad](NH2)RLN[NMePhe(4-NO2)]LR[Tic(7-OH)][Dha]G; linker N-C via X1) the molecule record lists half-life at 10 µM as 18.9

For C=C1NC(=O)[C@H](Cc2ccc([N+](=O)[O-])cc2)N(C)C(=O)[C@H]([C@@H](C)O)NC(=O)C(=C)NC(=O)C(=C)NC(=O)[C@@H]2Cc3ccc(O)cc3CN2C(=O)CN(C)C(=O)C(=C)NC(=O)CN(C)C(=O)[C@H](CCCC(N)=O)NC(=O)[C@H](Cc2c[nH]c3ccccc23)NC(=O)[C@H](Cc2c[nH]c3ccccc23)NC(=O)c2ccc(-c3nc(C(=O)OC)cs3)nc2-c2csc(n2)C(=C)NC(=O)CNC1=O [wTP3] (WW[Aad](NH2)[Sar][Dha][Sar][Tic(7-OH)][Dha][Dha]T[NMePhe(4-NO2)][Dha]G; linker N-C via X1) the molecule record lists half-life at 10 µM as 17.2

For C=C1NC(=O)[C@@H]2Cc3ccc(O)cc3CN2C(=O)CN(C)C(=O)/C(=C/C)NC(=O)CN(C)C(=O)[C@H](CCCC(N)=O)NC(=O)[C@H](Cc2c[nH]c3ccccc23)NC(=O)[C@H](Cc2c[nH]c3ccccc23)NC(=O)c2ccc(-c3nc(C(=O)OC)cs3)nc2-c2csc(n2)C(=C)NC(=O)CNC(=O)/C(=C/C)NC(=O)[C@H](Cc2ccc([N+](=O)[O-])cc2)N(C)C(=O)[C@H]([C@@H](C)O)NC(=O)C(=C)NC1=O [wTP4] (WW[Aad](NH2)[Sar][Dhb][Sar][Tic(7-OH)][Dha][Dha]T[NMePhe(4-NO2)][Dhb]G; linker N-C via X1) the molecule record lists half-life at 10 µM as 14.3

For C=C1NC(=O)CN(C)C(=O)/C(=C/C)NC(=O)C(=C)NC(=O)[C@@H]2Cc3ccc(O)cc3CN2C(=O)[C@@H]2CCCN2C(=O)[C@H](CC(C)C)NC(=O)[C@H](Cc2c[nH]c3ccccc23)NC(=O)[C@H](Cc2c[nH]c3ccccc23)NC(=O)c2ccc(-c3nc(C(=O)OC)cs3)nc2-c2csc(n2)C(=C)NC(=O)c2csc(n2)/C(=C/C)NC(=O)/C(=C/C)NC1=O [hTP4] (WWLP[Tic(7-OH)][Dha][Dhb][Sar][Dha][Dhb][X3]; linker N-C via X1) the molecule record lists half-life at 10 µM as 18.7

----------
experiment: Stability to glutathione (LC/MS); conditions: 5 mM glutathione in HEPES buffer, pH 7.5
Numbered stars: 1 amine (or outer) side, 2 acyl side, 3 side chain; on linkers, the order of the positions; unused ones are H or OH. Bridge positions count the residues as written; N and C are the ends. Square brackets hold non-standard residues; d marks the D form. Peptide text beside a SMILES is read from it. X1 = C=C(N[*:2])c1nc(-c2nc(-c3nc(C(=O)OC)cs3)ccc2C(=O)[*:1])cs1; NMePhe(4-NO2) = CN[C@@H](Cc1ccc([N+](=O)[O-])cc1)C(=O)O; Tic(7-OH) = O=C(O)[C@@H]1Cc2ccc(O)cc2CN1; X2 = O=C(c1csc([C@H](CO)N[*:1])n1)[*:2]; Aad = N[C@@H](CCCC(=O)O)C(=O)O; Dhb = C/C=C(\N)C(=O)O; Dha = C=C(N)C(=O)O; Sar = CNCC(=O)O
measurementKind: half-life at 10 µM (h)
Dear colleague, please return just the value in h, with no unit written.

For C=C1NC(=O)[C@H](Cc2ccc([N+](=O)[O-])cc2)N(C)C(=O)[C@H]([C@@H](C)O)NC(=O)C(=C)NC(=O)C(=C)NC(=O)[C@@H]2Cc3ccc(O)cc3CN2C(=O)CN(C)C(=O)C(=C)NC(=O)CN(C)C(=O)[C@H](CCCC(N)=O)NC(=O)[C@H](Cc2c[nH]c3ccccc23)NC(=O)[C@H](Cc2c[nH]c3ccccc23)NC(=O)c2ccc(-c3nc(C(=O)OC)cs3)nc2-c2csc(n2)C(=C)NC(=O)CNC1=O [wTP3] (WW[Aad](NH2)[Sar][Dha][Sar][Tic(7-OH)][Dha][Dha]T[NMePhe(4-NO2)][Dha]G; linker N-C via X1) the molecule record lists half-life at 10 µM as 20.6

For C=C1NC(=O)CN(C)C(=O)[C@H](CC(N)=O)NC(=O)c2csc(n2)[C@H](CO)NC(=O)[C@H](Cc2c[nH]c3ccccc23)NC(=O)[C@H](Cc2c[nH]c3ccccc23)NC(=O)c2ccc(-c3nc(C(=O)OC)cs3)nc2-c2csc(n2)C(=C)NC(=O)[C@H](C)NC(=O)/C(=C/C)NC(=O)[C@@H]2Cc3ccc(O)cc3CN2C(=O)[C@H](Cc2ccc([N+](=O)[O-])cc2)N(C)C(=O)CN(C)C(=O)C(=C)NC1=O [wTP12] (WW[X2]N[Sar][Dha][Dha][Sar][NMePhe(4-NO2)][Tic(7-OH)][Dhb]A; linker N-C via X1) the molecule record lists half-life at 10 µM as 16.4

For C=C1NC(=O)[C@@H]2Cc3ccc(O)cc3CN2C(=O)[C@H](CCCNC(=N)N)NC(=O)[C@H](CC(C)C)NC(=O)[C@H](Cc2ccc([N+](=O)[O-])cc2)N(C)C(=O)[C@H](CC(N)=O)NC(=O)[C@H](CC(C)C)NC(=O)[C@H](CCCNC(=N)N)NC(=O)[C@H](CCCC(N)=O)NC(=O)[C@H](C)NC(=O)[C@H](Cc2c[nH]c3ccccc23)NC(=O)c2ccc(-c3nc(C(=O)OC)cs3)nc2-c2csc(n2)C(=C)NC(=O)CNC1=O [hTP13] (WA[Aad](NH2)RLN[NMePhe(4-NO2)]LR[Tic(7-OH)][Dha]G; linker N-C via X1) the molecule record lists half-life at 10 µM as 1.9
